# System: Escherichia coli
# Method notes: Antibacterial activity against Escherichia coli DH5-alpha carrying pSCO1 encoding SCO1 by agar dilution technique
# Format: functional
# Test parameters: DH5alpha
Kindly supply the reported log10(MIC) values for the records listed here.
Values below are the log10 of the recorded MIC, with µg/mL as the unit.

Q) Please give the documented log10(MIC) of CCN1CCN(C(=O)N[C@@H](C(=O)N[C@@H]2C(=O)N3[C@@H]2SC(C)(C)[C@@H]3C(=O)O)c2ccccc2)C(=O)C1=O
A) 1.51

Q) Supply measured log10(MIC) of CO/N=C(\C(=O)N[C@@H]1C(=O)N2C(C(=O)O)=C(COC(N)=O)CS[C@H]12)c1ccco1 in your reply.
A) 0.00

Q) State, in one line, measured log10(MIC) of CC(=O)OCC1=C(C(=O)O)N2C(=O)[C@@H](NC(=O)Cc3cccs3)[C@H]2SC1
A) 0.90

Q) Give recorded log10(MIC). CO[C@@]1(NC(=O)Cc2cccs2)C(=O)N2C(C(=O)O)=C(COC(N)=O)CS[C@@H]21
A) 0.30

Q) Please look at this compound and report its log10(MIC): CC1(C)S[C@@H]2[C@H](NC(=O)C(C(=O)O)c3ccccc3)C(=O)N2[C@H]1C(=O)O (some centres not stated)
A) 2.11

###

# Test system: Escherichia coli
# Method notes: Antibacterial activity against Escherichia coli DH5-alpha by agar dilution technique
# Type: functional
# Test parameters: DH5alpha
Field: MIC. Provide a value for each of the molecules that follow.
Give your result in µg/mL as a bare value.

Q) Name the recorded MIC of the molecule listed here: CO[C@@]1(NC(=O)Cc2cccs2)C(=O)N2C(C(=O)O)=C(COC(N)=O)CS[C@@H]21
A) 2

Q) Provide MIC value for the following molecule: CC1(C)S[C@@H]2[C@H](NC(=O)[C@H](C(=O)O)c3ccsc3)C(=O)N2[C@H]1C(=O)O
A) 2

Q) Complete the entry with MIC for CO/N=C(\C(=O)N[C@@H]1C(=O)N2C(C(=O)O)=C(COC(N)=O)CS[C@H]12)c1ccco1
A) 1

Q) Identify the reported MIC for the following entry. CC1(C)S[C@@H]2[C@H](NC(=O)C(C(=O)O)c3ccccc3)C(=O)N2[C@H]1C(=O)O (some centres not stated)
A) 1

Q) Report MIC for CC(=O)OCC1=C(C(=O)O)N2C(=O)[C@@H](NC(=O)Cc3cccs3)[C@H]2SC1
A) 2

###

# Measured target: Beta-lactamase SCO-1 (Escherichia coli) (UniProt A1E3K9)
# Sequence (A1E3K9 as listed by the source): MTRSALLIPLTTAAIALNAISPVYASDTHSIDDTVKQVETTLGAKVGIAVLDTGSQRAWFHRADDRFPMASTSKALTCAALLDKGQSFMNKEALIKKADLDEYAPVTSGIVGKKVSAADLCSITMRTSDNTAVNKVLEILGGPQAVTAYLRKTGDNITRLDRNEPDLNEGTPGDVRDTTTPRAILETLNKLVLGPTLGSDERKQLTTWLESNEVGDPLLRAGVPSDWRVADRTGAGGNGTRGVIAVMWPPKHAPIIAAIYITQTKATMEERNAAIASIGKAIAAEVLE
# Method notes: Activity of Escherichia coli beta-lactamase SCO1 relative to penicillin G
# note: exactly 80 is not below, so it is Not satisfied; use Satisfied for Activity strictly under it

Q) Consider CC(=O)OCC1=C(C(=O)O)N2C(=O)[C@@H](NC(=O)Cc3cccs3)[C@H]2SC1 [CEPHALOTHIN] . Does its Activity lie strictly below 80?
A) Satisfied

Q) Is the reported Activity for CC(C)(O/N=C(\C(=O)N[C@@H]1C(=O)N2C(C(=O)[O-])=C(C[n+]3ccccc3)CS[C@H]12)c1csc(N)n1)C(=O)O [CEFTAZIDIME] strictly below 80?
A) Satisfied

Q) Is 80 strictly greater than the compound's reported Activity? compound: O=C(Cc1cccs1)N[C@@H]1C(=O)N2C(C(=O)[O-])=C(C[n+]3ccccc3)CS[C@H]12
A) Satisfied

Q) In plain terms, does CO/N=C(\C(=O)N[C@@H]1C(=O)N2C(C(=O)O)=C(COC(C)=O)CS[C@H]12)c1csc(N)n1 [CEFOTAXIME] come in under 80 for Activity?
A) Satisfied

Q) Lab log: compare recorded Activity with 80; is it strictly lower for Cc1onc(-c2ccccc2)c1C(=O)N[C@@H]1C(=O)N2[C@@H]1SC(C)(C)[C@@H]2C(=O)O ?
A) Satisfied

Q) Identify whether the compound CC1(C)S[C@@H]2[C@H](NC(=O)[C@H](N)c3ccccc3)C(=O)N2[C@H]1C(=O)O records Activity below 80.
A) Not satisfied

###

# Test system: Escherichia coli
# Method notes: Antibacterial activity against Escherichia coli DH5-alpha carrying pSCO1 encoding SCO1 by agar dilution technique
# Type: functional
# Test parameters: DH5alpha
Assign MIC to each entry below.

Q) Using the record for C[C@H]1[C@H](NC(=O)/C(=N\OC(C)(C)C(=O)O)c2csc(N)n2)C(=O)N1S(=O)(=O)O [AZTREONAM] , state its measured MIC.
A) ≤ 0.12 µg/mL

Q) Return value of MIC for input C[C@@H](O)[C@H]1C(=O)N2C(C(=O)O)=C(SCCNC=N)C[C@H]12 [IMIPENEM ANHYDROUS] , no commentary.
A) ≤ 0.12 µg/mL

Q) Name the recorded MIC of the item CO/N=C(\C(=O)N[C@@H]1C(=O)N2C(C(=O)O)=C(COC(C)=O)CS[C@H]12)c1csc(N)n1 [CEFOTAXIME] in your answer.
A) ≤ 0.12 µg/mL

Q) Determine its reported MIC: CC1(C)S[C@@H]2[C@H](NC(=O)[C@H](C(=O)O)c3ccsc3)C(=O)N2[C@H]1C(=O)O [TICARCILLIN]
A) ≥ 256 µg/mL

Q) Please supply the value of reported MIC for the item CO/N=C(\C(=O)N[C@@H]1C(=O)N2C(C(=O)[O-])=C(C[N+]3(C)CCCC3)CS[C@H]12)c1csc(N)n1
A) ≤ 0.12 µg/mL

Q) Input CC(C)(O/N=C(\C(=O)N[C@@H]1C(=O)N2C(C(=O)[O-])=C(C[n+]3ccccc3)CS[C@H]12)c1csc(N)n1)C(=O)O [CEFTAZIDIME] , output reported MIC.
A) ≤ 0.12 µg/mL

Q) Give the value of MIC reported for the following: CC1(C)S[C@@H]2[C@H](NC(=O)[C@H](N)c3ccc(O)cc3)C(=O)N2[C@H]1C(=O)O [AMOXICILLIN]
A) ≥ 256 µg/mL
